target_system: MyD88^TIR (Homo sapiens, UniProt Q99836)
Construct: MyD88 (residues 148–296); 6xHis; made in house; host or cells: E. coli BL21 (DE3)
Sequence (Q99836 148-296): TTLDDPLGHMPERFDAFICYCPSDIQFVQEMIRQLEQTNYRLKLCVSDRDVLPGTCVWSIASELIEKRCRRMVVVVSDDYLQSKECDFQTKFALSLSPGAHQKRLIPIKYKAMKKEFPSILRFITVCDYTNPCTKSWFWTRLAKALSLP
experiment_description: T‐Surf phage library (P8 and P3) selection against MyD88^TIR, four rounds, NGS read counts
Assay type: binding
details: P8_MyD88: rank by count before grouping
Protocol: T‐Surf libraries were screened against the immobilized TIR domains of two major human TLR adaptor proteins, MAL^TIR and MyD88^TIR, allowing cross‐species selection of TIR‐binding motifs with 190 946 TIR‐derived peptides in a single binding assay (Scheme 1). Enriched phage pools from the fourth round of selection were analyzed using NGS after barcoding the peptide‐coding regions of the phage pools. […]
quantity_measured: Rank (before)

- WFLTAFRMAMDQVADT: 100
- DPQDLDRFYERLLSLL: 2840
- DPQARDCFYERLVSLF: 2687
- DSWTSAALYEALHALL: 172
- DPQDLDWFYERLVSQM: 466

P = SFSFPLDQLSYFLNLP
Q = DPQDLDCFYERLVNLF
Problem: I need your help: which of the pair P , Q has higher Rank (before)? Write down the label of the entry you select.
Solution: Q
(Q: 2740, P: 147)

P = DPQVRDWFYERAVSLF
Q = YILYEDQTIKFVFRDFIQEL
R = ELDFSHFWLFDGQATGEA
S = LFWDRLIYAVSDVASA
Problem: Rank the 4 sequences: largest Rank (before) first, smallest last. Would you mind listing the labels in the order asked for?
Solution: P, Q, R, S
(P: 2660, Q: 988, R: 174, S: 119)

----------
target_system: MyD88^TIR (Homo sapiens)
Construct: MyD88 (residues 148–296); 6xHis; made in house; host or cells: E. coli BL21 (DE3)
experiment_description: T‐Surf phage library (P8 and P3) selection against MyD88^TIR, four rounds, NGS read counts
Type: binding
details: P3 library, selection against MyD88 TIR; rank by count after grouping
quantity_measured: P3_MyD88 Rank (after)

* NELVHVCFSNENSQVG | 275
* SWGQSFLKSPLGWLFA | 272
* LVALEISKKMTIFATI | 228
* ALLKKLDSGFSEEKLL | 267
* SENYATSPWALDELVRIVEA | 258
* NGHENEIIKEIVETIV | 205
* KEVEGWRDALPTVASL | 220
* SSFREQLRPALKERLP | 215
* YTALTNSGVHTFLDND | 206
* LSEESWRQALEKAGKL | 202
* AVDNETDKIQTPLKNE | 231
* YTARTNSGFHTFLDND | 225
* SSFRERLCRLLELSKK | 235
* PSDVRKKTGSLAKAFA | 285
* YAFTGHLHRYLVPRGL | 248
* SELREVADGSVSPLEM | 192
* RYIMPHPQELIQQKQP | 249
* PSEVRVVDDGSVSPLEM | 211
* SSLREGLWRLLELSKR | 209
* RLLKWKEALHQFHSLVG | 277
* YLKVESWRQALEKAGKL | 268
* SSFREGQWCLMELCKK | 280
* SELRVVDDGSVSPLK | 210
* DHHLDLPRGKAIKPEFW | 241
* YTALTNCGFHTFRDNV | 208
* RISAFHQQLVMALKERLP | 263
* LKWGDPYFWSKLRFA | 207
* SSFREALWRLLGLSEK | 279
* YTALPNSGFHTFRDNN | 257
* QGGDEITPSLFKAFKD | 265
* LNVESWRKALEKAGKL | 230
* YTALTYSGFHTFRDNV | 276
* NGHESEIIKEIVDTFM | 243
* NQLRNAQTAAANLSGW | 233
* YLKWGYPRFWDRQRFP | 282
* LKVESWRQALAKAGRL | 197
* YYLDPSHLRKQTGSLAKAFA | 224
* KNLSNELVSKNILTFM | 260
* NGHESENIKEIVDTIL | 212
* YAFTGHLQRYLVQRCV | 234
* YALTGHKHRYMVQRGV | 193
* YTALTNSGFHTFREM | 213
* YLKWGYPRFWDRLRCA | 216
